# target desc: Abeta monomers (Homo sapiens)
# Construct: incubate with FITC Abeta monomers, oligomers, fibrils and FITC for 1 hour at room temperature
# Sequence (P05067 672-713 limits assumed): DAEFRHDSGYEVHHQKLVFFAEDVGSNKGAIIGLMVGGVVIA
# test description: Peptide microarray, binding of FITC Abeta monomers to immobilized peptides
# conditions: quotient binding signal to monomers / binding signal to fibrils
[ ]: non-standard residue; d: D form. d(hArg) = N=C(N)NCCCC[C@@H](N)C(=O)O; dPhg = N[C@@H](C(=O)O)c1ccccc1
Reported Binding specificity monomer to fibrils by item:
The response must contain the number and no unit.

| substance | measurement kind | result number |
| --- | --- | --- |
| rpr07rlhtkkkr (H-[dR][dP][dR][d(hArg)][dR][dL][dH][dT][dK][dK][dK][dR]-NH2; SMILES CC(C)C[C@@H](NC(=O)[C@@H](CCCNC(=N)N)NC(=O)[C@@H](CCCCNC(=N)N)NC(=O)[C@@H](CCCNC(=N)N)NC(=O)[C@H]1CCCN1C(=O)[C@H](N)CCCNC(=N)N)C(=O)N[C@H](Cc1c[nH]cn1)C(=O)N[C@@H](C(=O)N[C@H](CCCCN)C(=O)N[C@H](CCCCN)C(=O)N[C@H](CCCCN)C(=O)N[C@H](CCCNC(=N)N)C(N)=O)[C@H](C)O) [ANK18, D3 derivative; 07: D-Homoarginine] | Binding specificity monomer to fibrils | 9.4 |
| rkr07rlvtkrnr (H-[dR][dK][dR][d(hArg)][dR][dL][dV][dT][dK][dR][dN][dR]-NH2; SMILES CC(C)C[C@@H](NC(=O)[C@@H](CCCNC(=N)N)NC(=O)[C@@H](CCCCNC(=N)N)NC(=O)[C@@H](CCCNC(=N)N)NC(=O)[C@@H](CCCCN)NC(=O)[C@H](N)CCCNC(=N)N)C(=O)N[C@@H](C(=O)N[C@@H](C(=O)N[C@H](CCCCN)C(=O)N[C@H](CCCNC(=N)N)C(=O)N[C@H](CC(N)=O)C(=O)N[C@H](CCCNC(=N)N)C(N)=O)[C@H](C)O)C(C)C) [ANK16, D3 derivative; 07: D-Homoarginine] | Binding specificity monomer to fibrils | 8.1 |
| rprvrl06yhwnr (H-[dR][dP][dR][dV][dR][dL][dPhg][dY][dH][dW][dN][dR]-NH2; SMILES CC(C)C[C@@H](NC(=O)[C@@H](CCCNC(=N)N)NC(=O)[C@H](NC(=O)[C@@H](CCCNC(=N)N)NC(=O)[C@H]1CCCN1C(=O)[C@H](N)CCCNC(=N)N)C(C)C)C(=O)N[C@@H](C(=O)N[C@H](Cc1ccc(O)cc1)C(=O)N[C@H](Cc1c[nH]cn1)C(=O)N[C@H](Cc1c[nH]c2ccccc12)C(=O)N[C@H](CC(N)=O)C(=O)N[C@H](CCCNC(=N)N)C(N)=O)c1ccccc1) [ANK15, D3 derivative; 06: Phenylglycine (D)] | Binding specificity monomer to fibrils | 12.2 |

// moving on: another record for Binding specificity monomer to fibrils
Q: Dear colleague, I am looking for the recorded Binding specificity monomer to fibrils of the following substance: rkrirl06yhikr (H-[dR][dK][dR][dI][dR][dL][dPhg][dY][dH][dI][dK][dR]-NH2; SMILES CC[C@@H](C)[C@@H](NC(=O)[C@@H](Cc1c[nH]cn1)NC(=O)[C@@H](Cc1ccc(O)cc1)NC(=O)[C@H](NC(=O)[C@@H](CC(C)C)NC(=O)[C@@H](CCCNC(=N)N)NC(=O)[C@H](NC(=O)[C@@H](CCCNC(=N)N)NC(=O)[C@@H](CCCCN)NC(=O)[C@H](N)CCCNC(=N)N)[C@H](C)CC)c1ccccc1)C(=O)N[C@H](CCCCN)C(=O)N[C@H](CCCNC(=N)N)C(N)=O) [ANK17, D3 derivative; 06: Phenylglycine (D)]
Ans: 2.5
